ASSAYED TARGET: T1, biotinylated hBLyS-ECD (human, UniProt Q9Y275 134-285, biotinylated with Biotin-X-X-NHS (molar ratio 7:1); sites not stated)
T1 construct: also called biotinylated immunogen; biotinylated hBLvS-ECD
T1 sequence (Q9Y275 134-285): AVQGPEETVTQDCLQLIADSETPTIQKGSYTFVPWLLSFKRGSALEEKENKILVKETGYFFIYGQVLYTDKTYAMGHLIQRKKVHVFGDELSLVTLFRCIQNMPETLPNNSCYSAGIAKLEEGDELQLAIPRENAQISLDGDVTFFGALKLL
EXPERIMENTAL PROTOCOL: ELISA on captured biotinylated hBLyS-ECD; antibody 13.3 nM
OD450 nm values by entry
Please give a number only; it is taken to be in OD450 nm.

Examples with their reported OD450 nm follow.
BINDER	OD450 nm [OD450 nm]
h8E7D9C7F5-1 (antibody, V domains shown, Humanized antibody; also called humanized BLyS antibody h8E7D9C7F5 variant 1 (VH.1 / Vk.1)) VH: EVQLVQSGAEVKKPGASVKVSCKASGYTFTSYGISWVRQAPGQGLEWMGEIYPRSGNTYYNEKFKGRVTMTTDTSTSTAYMELRSLRSDDTAVYYCARSGPITTLVATDYGMDYWGQGTTVTVSS VL: DIVMTQSPDSLAVSLGERATINCRASKSVSTSSYSYMHWYQQKPGQPPKLLIKFASNLESGVPDRFSGSGSGTDFTLTISSLQAEDVAVYYCQHSREFPYTFGGGTKVEIK	2.2
c97A3C2H4 (antibody, V domains shown, also called chimeric antibody c97A3C2H4) VH: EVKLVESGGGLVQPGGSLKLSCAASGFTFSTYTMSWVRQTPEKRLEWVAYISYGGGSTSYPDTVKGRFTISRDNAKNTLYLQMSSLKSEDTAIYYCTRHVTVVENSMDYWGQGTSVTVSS VL: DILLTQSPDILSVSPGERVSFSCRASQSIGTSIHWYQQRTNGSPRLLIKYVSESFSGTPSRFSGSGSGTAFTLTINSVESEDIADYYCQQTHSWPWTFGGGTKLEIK	2.34
h97A3C2H4-9 (antibody, V domains shown, Humanized antibody; VH3-7/JH6 CDR-grafted with A93T, G44R; also called humanized BLyS antibody h97A3C2H4 variant 9 (VH.1b / Vk.1d)) VH: EVQLVESGGGLVQPGGSLRLSCAASGFTFSTYTMSWVRQAPGKRLEWVAYISYGGGSTSYPDTVKGRFTISRDNAKNSLYLQMNSLRAEDTAVYYCTRHVTVVENSMDYWGQGTTVTVSS VL: DILLTQSPDFQSVTPKEKVTITCRASQSIGTSIHWYQQKTDQSPKLLIKYVSESFSGTPSRFSGSGSGTDFTLTINSLEAEDAATYYCQQTHSWPWTFGGGTKVEIK	2.27

Exercise: State, in one line, measured OD450 nm of c8E7D9C7F5 (antibody, V domains shown, also called chimeric antibody c8E7D9C7F5) VH: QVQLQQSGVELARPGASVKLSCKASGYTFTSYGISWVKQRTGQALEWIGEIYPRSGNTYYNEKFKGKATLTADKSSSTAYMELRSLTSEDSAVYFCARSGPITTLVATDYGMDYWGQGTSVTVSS VL: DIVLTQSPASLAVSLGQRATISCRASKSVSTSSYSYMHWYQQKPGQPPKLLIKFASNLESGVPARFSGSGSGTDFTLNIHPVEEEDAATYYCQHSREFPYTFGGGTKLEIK
Solution: 2.37
